Quick reference for Percent Effect among some compounds
system: Wolbachia pipientis; test: Anti-Wolbachia Cell-Based Screen; assay type: functional; design: scale not given: in the data most compounds retested in dose-response had high values; conditions: 5 µM
The campaign covered roughly 48,000 compounds. About 13,000 (27%) showed an effect of 50% or more. The list shows a part of the results.
The reply should be a number in %, with the unit left off.

Below: 3 compounds and their reported Percent Effect.
compound | target.or.system | Percent Effect, %
Cc1noc([C@H]2C[C@H]3OCC[C@H]3N(Cc3ccncc3)C2)n1 | Wolbachia pipientis | 9.305
CN(C)C(=O)CN1CCN(c2ncccn2)[C@@H]2CS(=O)(=O)C[C@@H]21 | Wolbachia pipientis | -3.142
CCS(=O)(=O)N1CCc2c(COC)cncc2C1 | Wolbachia pipientis | 85.06

So what's the measured Percent Effect for this one? "CC(C)c1cc(N2CCC3(CC2)CN(C)CCN3C)ncn1"
-0.4054

So what's the measured Percent Effect for this one? "Cn1cc(CN2CC[C@]3(C[C@H](Oc4ccccn4)CO3)C2)cn1.O=C(O)C(F)(F)F.O=C(O)C(F)(F)F"
102.3
